test: Metabolic stability in mouse hepatic microsomes (Scripps Florida DMPK Core); type: in vitro ADME; details: mouse, liver microsomes; hepatic microsomes; read-out: Intrinsic Clearance, Mouse (Clint)
quantity: microsomal CLint
In your response, put the unit directly after the numeric value.

Here's what some known entries look like.
| compound | result value |
| --- | --- |
| Nc1cccc(NC(=O)N2CCN(C(=O)c3cccc(OCCC4CCCCC4)c3)CC2)c1 [TM93] | 41 µL/min/mg |
| O=C(Nc1ccccc1)N1CCN(C(=O)c2cccc(OCCC3CCOCC3)c2)CC1 [TM45] | 62 µL/min/mg |
| O=C(Nc1ccccc1)N1CCN(C2(c3cccc(OCCc4ccccc4)c3)COC2)CC1 [TM97] | 415 µL/min/mg |

Let us examine a further case.
Query: Recall and state the measured microsomal CLint for O=C(Nc1ccccc1)N1CCN([S+]([O-])c2cccc(OCCc3ccccc3)c2)CC1 (stereo not shown) [TM100] .
Result: 72 µL/min/mg

---

tested on: TEAD; experiment: WB primary assay (SAR tables F1, F3A); assay type: biochemical; details: 10 μM
Documented WB: % inh. @ 10 μM across a set of compounds
Numbers only; they are read as %.

Here's what some known entries look like.
| compound | reading unit | result value |
| --- | --- | --- |
| O=C(Oc1ccccc1)N1CCN(Cc2cccc(OCCC3CCCCC3)c2)CC1 | % | 11 |
| O=C(Nc1ccccc1)N1CCN(C(=O)c2ccnc(OCCC3CCCCC3)c2)CC1 | % | 96 |
| O=C(Oc1ccccc1)N1CCN(C(=O)c2cccc(OCCC3CCCCC3)c2)CC1 | % | 94 |
| O=C(Nc1ccccc1)N1CCN(Cc2cccc(OCCC3CCCCC3)c2)CC1 | % | 95 |
| C[C@@H]1CN(C(=O)Nc2ccccc2)[C@@H](C)CN1C(=O)c1cccc(OCCC2CCCCC2)c1 | % | 77 |

Query: Recall and state the measured WB: % inh. @ 10 μM for CC1CN(C(=O)Nc2ccccc2)CCN1C(=O)c1cccc(OCCC2CCCCC2)c1 (stereo not shown) .
Result: 81

Query: Recall and state the measured WB: % inh. @ 10 μM for `O=C(Nc1ccccc1)N1C[C@@H]2C[C@H]1CN2C(=O)c1cccc(OCCC2CCCCC2)c1` .
Result: 22

---

experiment: Metabolic stability MLM; conditions: 60 min; % parent remained per Table G2
Documented Met stab MLM, 60 min across a set of compounds

Here's what some known entries look like.
| compound | Met stab MLM, 60 min |
| --- | --- |
| O=C(Oc1ccccc1)N1CCN(C(=O)c2cccc(OCCC3CCCCC3)c2)CC1 [MGH-CP-714] | < 5% |
| O=C(Nc1ccccc1)N1CCN(Cc2cccc(OCCC3CCCCC3)c2)CC1 [MGH-CP-715] | 15% |
| CC1CN(C(=O)Nc2ccccc2)CCN1C(=O)c1cccc(OCCC2CCCCC2)c1 (stereo not shown) [MGH-CP-710] | < 5% |

Query: Recall and state the measured Met stab MLM, 60 min for O=C(Nc1ccccc1)N1CCN(C(=O)c2cccc(OCCC3CCCCC3)c2)CC1 [TM2] .
Result: 4%

---

assay: Metabolic stability HLM; assay type: in vitro ADME, human; conditions: 60 min
quantity: Met stab HLM, 60 min

Query: Recall and state the measured Met stab HLM, 60 min for O=C(Nc1ccccc1)N1CCN(C(=O)c2cccc(OCCC3CCCCC3)c2)CC1 [TM2] .
Result: 6%
